# Test system: NOMO1
# assay_explanation: cell viability relative to DMSO control; higher = less cytotoxic
# assay_setup: HPLM + 10% dialyzed FBS; 48 h; 0.000781 µM
Listing of recorded cell viability by entry.
I'd appreciate it if you included the unit after the number.

Please state recorded cell viability (tested on NOMO1) of "Cc1cn([C@H]2C=C[C@@H](CO)O2)c(=O)[nH]c1=O"
105%

Quick one: "C[C@@H]1CCN(C(=O)CC#N)C[C@@H]1N(C)c1ncnc2[nH]ccc12"
93.6%

Moving on to "OC[C@H]1O[C@H](C[C@@H]1O)N2\C=C(F)/C(=O)NC2=O"
115%

====

# Tested on: P12-Ichikawa
# assay_explanation: cell viability relative to DMSO control; higher = less cytotoxic
# assay_setup: RPMI 5 mM glucose + 10% FBS; 48 h; 0.000781 µM
endpoint_name: cell viability (%)
Reply numerically in %, unit not repeated.

Given "c1ccc2c(Cc3c[nH]c4ccccc34)c[nH]c2c1" , state its recorded cell viability.
100

Check "CCc1cc2c(cc1N1CCC(N3CCOCC3)CC1)C(C)(C)c1[nH]c3cc(C#N)ccc3c1C2=O" too.
73.7

Field entry: "C[C@@H]1CCN(C(=O)CC#N)C[C@@H]1N(C)c1ncnc2[nH]ccc12"
81.9

And "N#C/C(=C\c1ccc(O)c(O)c1)C(=O)NCc1ccccc1" ?
105

Next entry: "O=C1\C=C/C=C2/[C@H]3CNC[C@H](C3)CN12"
116

Can you check "Cc1ccc([N+](=O)[O-])cc1[S+](=O)([O-])N(C)/N=C/c1cnc2ccc(Br)cn12" next?
114

Proceed to "COc1cccc2c1C(=O)c1c(O)c3c(c(O)c1C2=O)C[C@@](O)(C(=O)CO)C[C@@H]3O[C@H]1C[C@H](N)[C@H](O[C@H]2CCCCO2)[C@H](C)O1"
122

Continue with "Cc1c(-c2cccc3c(CCCOc4cccc5ccccc45)c(C(=O)O)n(Cc4cccnc4)c23)c(COc2ccc(N3CCN([S+](=O)([O-])N(C)C)CC3)cc2)nn1C"
92.1

====

# Test system: P12-Ichikawa
# assay_explanation: cell viability relative to DMSO control; higher = less cytotoxic
# assay_setup: RPMI 5 mM glucose + 10% FBS; 48 h; 0.000781 µM
# reported cell viability; entries follow
Respond with the bare value in %.

Below: 5 molecules and their reported cell viability.
CC(C)(S)[C@@H](N)C(=O)O | 100
C/C(=N\NC(=S)N1CCC1)c1ccccn1 | 110
CC\12CCC(=O)\C=C1CCC3C2CCC4(C)C3CCC4(O)C#C (centres undefined) | 99.3
Cc1cc(OCCC[S+](C)(=O)[O-])cc(C)c1-c1cccc(COc2ccc3c(c2)OC[C@H]3CC(=O)O)c1 | 105
N#Cc1ccc(Oc2ccc3c(c2)COB3O)cc1 | 117

cell viability for CCC(C)N1\N=C/N(C1=O)C2=CC=C(C=C2)N3CCN(CC3)C4=CC=C(OC[C@H]5CO[C@@](C[N]6C=NC=N6)(O5)C7=CC=C(Cl)C=C7Cl)C=C4 (some centres undefined) ?
111

Another molecule to check: "CN(C)C1=CC(=CC=C1)C\2=C\3C(=O)N(NC3=C/C(=O)N2C)C4=CC=CC=C4Cl"
113

Next: N[C@H]2CN(CC12CC1)c3c(F)cc4c(c3Cl)[N@@](C=C(C4=O)C(=O)O)C5C[C@H]5F (some centres undefined)
79.9

Now consider "O=C(CCCCCCC(=O)Nc1cccnc1)NO" .
82.5
